Test System: GPIIb/IIIa (Homo sapiens, UniProt P05106+P08514)
Construct: Purification of GPIIb/IIIa from HEL cells; endogenous in cells; host or cells: HEL cells (HEL 92.1.7, ATCC TIB180); endogenous complex solubilized with Triton X-100 and purified in house
Sequence (P08514 32-887 limits assumed): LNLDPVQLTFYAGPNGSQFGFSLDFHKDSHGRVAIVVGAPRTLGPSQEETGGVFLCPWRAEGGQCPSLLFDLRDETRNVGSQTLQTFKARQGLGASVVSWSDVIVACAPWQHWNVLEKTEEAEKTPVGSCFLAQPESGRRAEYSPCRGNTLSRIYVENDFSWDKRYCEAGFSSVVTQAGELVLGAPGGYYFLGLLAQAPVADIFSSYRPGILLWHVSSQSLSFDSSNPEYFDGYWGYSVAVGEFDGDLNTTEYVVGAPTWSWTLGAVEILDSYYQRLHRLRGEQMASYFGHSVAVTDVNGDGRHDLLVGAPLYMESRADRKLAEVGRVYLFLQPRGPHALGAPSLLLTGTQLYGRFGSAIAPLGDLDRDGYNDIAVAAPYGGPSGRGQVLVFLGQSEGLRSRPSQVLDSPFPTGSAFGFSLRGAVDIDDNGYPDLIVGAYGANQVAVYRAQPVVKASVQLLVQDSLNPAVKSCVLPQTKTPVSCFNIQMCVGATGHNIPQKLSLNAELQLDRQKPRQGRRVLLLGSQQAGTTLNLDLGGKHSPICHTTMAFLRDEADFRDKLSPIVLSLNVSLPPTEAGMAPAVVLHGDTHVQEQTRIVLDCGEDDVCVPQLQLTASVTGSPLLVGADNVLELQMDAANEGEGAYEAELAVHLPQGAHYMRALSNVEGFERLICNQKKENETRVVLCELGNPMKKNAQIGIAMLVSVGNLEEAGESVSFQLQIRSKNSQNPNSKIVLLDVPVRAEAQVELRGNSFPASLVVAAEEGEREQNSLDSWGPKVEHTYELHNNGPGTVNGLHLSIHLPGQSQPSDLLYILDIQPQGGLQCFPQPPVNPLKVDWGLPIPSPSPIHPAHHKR
Sequence (P08514 891-1039 limits assumed): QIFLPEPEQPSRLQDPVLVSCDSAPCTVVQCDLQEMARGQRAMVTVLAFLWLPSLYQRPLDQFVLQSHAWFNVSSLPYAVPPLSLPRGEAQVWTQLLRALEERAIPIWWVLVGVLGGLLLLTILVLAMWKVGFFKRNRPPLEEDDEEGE
Sequence (P05106 27-788): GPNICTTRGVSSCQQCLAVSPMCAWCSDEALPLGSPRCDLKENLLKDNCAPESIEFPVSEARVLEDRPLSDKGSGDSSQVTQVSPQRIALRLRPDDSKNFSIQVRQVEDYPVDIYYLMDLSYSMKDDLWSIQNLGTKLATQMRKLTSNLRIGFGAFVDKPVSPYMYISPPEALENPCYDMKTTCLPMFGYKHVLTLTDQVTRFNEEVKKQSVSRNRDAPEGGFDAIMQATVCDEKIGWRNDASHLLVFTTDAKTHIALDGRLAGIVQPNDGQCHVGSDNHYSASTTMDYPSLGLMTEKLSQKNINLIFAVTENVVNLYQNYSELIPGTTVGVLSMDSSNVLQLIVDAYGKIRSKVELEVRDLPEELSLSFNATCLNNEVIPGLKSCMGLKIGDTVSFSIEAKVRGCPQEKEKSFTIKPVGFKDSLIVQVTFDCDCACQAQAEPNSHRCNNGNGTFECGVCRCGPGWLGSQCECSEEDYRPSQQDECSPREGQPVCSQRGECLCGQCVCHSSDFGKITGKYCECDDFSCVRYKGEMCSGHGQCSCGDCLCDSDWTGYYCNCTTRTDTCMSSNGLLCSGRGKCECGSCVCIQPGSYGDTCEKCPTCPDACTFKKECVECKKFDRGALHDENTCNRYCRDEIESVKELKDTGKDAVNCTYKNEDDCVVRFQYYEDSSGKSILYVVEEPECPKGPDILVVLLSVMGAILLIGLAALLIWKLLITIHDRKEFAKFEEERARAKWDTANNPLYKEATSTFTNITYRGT
Test Method Notes: Inhibitory activity against binding of GPIIb/IIIa and fibrinogen
Condition Notes: Table 2; 10^-5 M; read-out: GPIIb/IIIa Fibrinogen Binding Inhibitory Activity
From the text: Test Example 1: Inhibitory activity against binding of GPIIb/IIIa and fibrinogen (1) Cultivation of human erythroleukemia-derived cell line (hereinafter referred to as HEL cells) HEL cells (HEl92.1.7; ATCC No. TIB180) were purchased from ATCC (Rockville, Md., U.S.A.). […]
Would you mind sorting the entries by inhibition at 10 µM according to these classes? class 0 (below 60%), class 1 (60% to below 90%), class 2 (90% or more)

* O=C(O)c1cn(Cc2ccc(C(F)(F)F)cc2)c2c(F)c(N3CCC(C4CCNCC4)CC3)c(F)cc2c1=O [Compound 79] | class 2
* O=C(O)c1cn(C2CC2)c2c(F)c(N3CCn4cc(CN5CCOCC5)nc4C3)c(F)cc2c1=O [Compound 30] | class 0
* O=C(O)c1cn(C2CC2)c2c(F)c(N3CCn4ccnc4C3)c(F)cc2c1=O [Compound 18] | class 0
* CN1CCN(C(=O)OC2CCN(c3c(F)cc4c(=O)c(C(=O)O)cn(Cc5nccs5)c4c3F)C2)CC1 (centres unmarked) [Compound 63] | class 2
* CN(C)CCn1cc(C(=O)O)c(=O)c2cc(F)c(N3CCN(C)CC3)cc21 [Compound 13] | class 1
* CCNCC1CCN(c2c(F)cc3c(=O)c(C(=O)O)cn(C4CC4)c3c2F)C1 (centres unmarked) [Compound 23] | class 1
* O=C(O)c1cn(Cc2nccs2)c2c(F)c(N3CCN(CCO)CC3)c(F)cc2c1=O [Compound 71] | class 2
* COc1ccc(Cn2cc(C(=O)O)c(=O)c3ccc(N4CCNCC4)cc32)cc1 [Compound 81] | class 2
* CN1CCN(c2c(F)cc3c(=O)c(C(=O)O)cn(C4CC4)c3c2F)CC1 [Compound 17] | class 0
* O=C(O)c1cn(C2CC2)c2c(F)c(N3CCn4ccnc4C3)c(F)c(F)c2c1=O [Compound 40] | class 0
* O=C(O)c1cn(C2CC2)c2c(F)c(SC3CCNCC3)c(F)cc2c1=O [Compound 19] | class 0
* CN(C)CCCNc1c(F)cc2c(=O)c(C(=O)O)cn(Cc3nccs3)c2c1F [Compound 60] | class 2
* COc1ccc(Cn2cc(C(=O)O)c(=O)c3ccc(N4CCC(C5CCNCC5)CC4)cc32)cc1 [Compound 77] | class 2

---

Test System: GPIIb/IIIa (Homo sapiens, UniProt P05106+P08514)
Construct: Purification of GPIIb/IIIa from HEL cells; endogenous in cells; host or cells: HEL cells (HEL 92.1.7, ATCC TIB180); endogenous complex solubilized with Triton X-100 and purified in house
Test Method Notes: Inhibitory activity against binding of GPIIb/IIIa and fibrinogen
Condition Notes: Table 2; 10^-6 M; read-out: GPIIb/IIIa Fibrinogen Binding Inhibitory Activity
Where a name gives a salt, the structure may show the parent alone.
Measurement Kind: inhibition at 1 µM (%)

• CN1CCN(c2c(F)cc3c(=O)c(C(=O)O)cn(Cc4nccs4)c3c2F)CC1 [Compound 50, hydrochloride] = 92.3
• O=C(O)c1cn(C2CC2)c2c(F)c(N3Cc4ccccc4C(CO)C3)c(F)cc2c1=O (stereo not shown) = 36.3
• O=C(O)c1cn(Cc2ccncc2)c2c(F)c(N3CCNCC3)c(F)cc2c1=O = 100
• COc1ccccc1Cn1cc(C(=O)O)c(=O)c2cc(F)c(N3CCNCC3)c(F)c21 = 83.1

// data source = patent US5519024A
